- Tested on: Escherichia coli ATCC 25922
Provide the reported MIC of each item.
One number for each entry, in µg/mL.

Worked examples follow.
>  <compound>
CC[C@H]1OC(=O)[C@H](C)[C@@H](O[C@H]2C[C@@](C)(OC)[C@@H](O)[C@H](C)O2)[C@H](C)[C@@H](O[C@@H]2O[C@H](C)C[C@H](N(C)C)[C@H]2O)[C@](C)(O)C[C@@H](C)/C(=N\OCCNCCCCCCNCc2ccc([N+](=O)[O-])c(O)c2)[C@H](C)[C@@H](O)[C@]1(C)O [Compound 37]

>  <MIC / µg/mL>
4

$$$$
>  <compound>
CC[C@H]1OC(=O)[C@H](C)[C@@H](O[C@H]2C[C@@](C)(OC)[C@@H](O)[C@H](C)O2)[C@H](C)[C@@H](O[C@@H]2O[C@H](C)C[C@H](N(C)C)[C@H]2O)[C@](C)(O)C[C@@H](C)/C(=N\OCCNCCCCCCNCc2ccccc2C(F)(F)F)[C@H](C)[C@@H](O)[C@]1(C)O [Compound 21]

>  <MIC / µg/mL>
4

$$$$

As a next step, examine the compound that follows.
IN: State its MIC: CC[C@H]1OC(=O)[C@H](C)[C@@H](O[C@H]2C[C@@](C)(OC)[C@@H](O)[C@H](C)O2)[C@H](C)[C@@H](O[C@@H]2O[C@H](C)C[C@H](N(C)C)[C@H]2O)[C@](C)(O)C[C@@H](C)/C(=N\OCCNCCCCCCNCc2ccc(Oc3ccccc3)cc2)[C@H](C)[C@@H](O)[C@]1(C)O [Compound 29]
OUT: 1
